System: PC-3 prostate cancer cells
Experiment: Cancer cell survival (CellTiter-Glo), PC-3
Format: cell-based
Conditions: Homo sapiens; PC-3 cells; 318 nM; 72 h; read-out: Cell survival at given concentration

Compound	viability at 0.318 µM / %
O=c1cc(-c2ccc(O)c(O)c2)oc2cc(O)cc(O)c12 [luteolin]	99
O=c1c(O)c(-c2cc(O)c(O)c(O)c2)oc2cc(O)cc(O)c12 [myricetin]	99
O=c1cc(-c2ccc(O)cc2)oc2cc(O)cc(O)c12 [apigenin]	100
O=C[C@H](O)[C@@H](O)[C@@H](O)CO [L-arabinose]	100
Oc1cc(O)c2c(c1)O[C@H](c1cc(O)c(O)c(O)c1)[C@H](O)C2 [EGC, epigallocatechin]	99
Oc1ccc(C=Cc2cc(O)cc(O)c2)cc1 [resveratrol]	102

###

# Lookup of reported Cell survival at given concentration keyed by entry
Test system: AGS stomach cancer cells
Test: Cancer cell survival (CellTiter-Glo), AGS
Type: cell-based
Set-up: unit not given here
Conditions: 10 mM
Measured Quantity: Cell survival at given concentration

Compound	Measured Quantity	Test Value
CC(O)CC(=O)O (stereo not drawn) [beta-hydroxybutyrate]	Cell survival at given concentration	1.00
CCCCC(=O)O [valerate]	Cell survival at given concentration	0.63
CC(=O)O [acetate]	Cell survival at given concentration	1.02
CC(O)CCO (stereo not shown)	Cell survival at given concentration	0.98

###

Assay: Human Regulatory T Cell Differentiation Assay
Format: cell-based
Details: human, primary naïve CD4+ T cells isolated from PBMCs, 1 mM, read-out: Cell viability % DMSO

Compound	viability at 6 days, 1 mM
CC(=O)O [Acetic acid]	90 to 110%
O=C[C@H](O)[C@@H](O)[C@@H](O)CO [L-arabinose]	90 to 110%

###

System: MCF7 breast cancer cells
Test: Cancer cell survival (CellTiter-Glo), MCF7
Format: cell-based
Details: 10 μM, 72 h, Table 5.2

Compound	Experimental Target	Cell survival at given concentration
CCCCC(=O)O [valerate]	MCF7 breast cancer cells	1.01
CC(=O)O [acetate]	MCF7 breast cancer cells	0.98
CC(O)CC(=O)O (stereo not drawn) [beta-hydroxybutyrate]	MCF7 breast cancer cells	1.00
CC(O)CCO (stereo not shown)	MCF7 breast cancer cells	0.98

###

Collected viability at 0.101 µM values appear next to each entry.
Test system: A549 lung cancer cells
Assay: Cancer cell survival (CellTiter-Glo), A549
Type: cell-based
Settings: Homo sapiens, 101 nM, 72 h, read-out: Cell survival at given concentration
Measured Quantity: viability at 0.101 µM (%)

Molecule	Test Value
Oc1cc(O)c2c(c1)O[C@H](c1cc(O)c(O)c(O)c1)[C@H](O)C2 [EGC, epigallocatechin]	98
O=c1cc(-c2ccc(O)cc2)oc2cc(O)cc(O)c12	101
O=c1c(O)c(-c2cc(O)c(O)c(O)c2)oc2cc(O)cc(O)c12	100
O=c1cc(-c2ccc(O)c(O)c2)oc2cc(O)cc(O)c12	96
O=C[C@H](O)[C@@H](O)[C@@H](O)CO	101
Oc1ccc(C=Cc2cc(O)cc(O)c2)cc1	98

###

Tested on: T24 bladder cancer cells
Test: Cancer cell survival (CellTiter-Glo), T24
Type: cell-based
Conditions: 32 μM, 72 h, Table 3.2
Cell survival at given concentration reference

Molecule	Cell survival at given concentration
CC(O)CCO (stereo not shown)	1.00
CC(O)CC(=O)O (stereo not drawn) [beta-hydroxybutyrate]	0.95
CCCCC(=O)O [valerate]	0.98
CC(=O)O [acetate]	0.97

###

Test: Human Regulatory T Cell Differentiation Assay
Assay type: cell-based
Details: human, primary naïve CD4+ T cells isolated from PBMCs, 100 nM, read-out: Cell viability % DMSO

Compound	viability at 6 days, 0.1 µM
O=c1c(O)c(-c2ccc(O)c(O)c2)oc2cc(O)cc(O)c12 [Quercetin]	90 to 110%

###

Test system: HCT 116 colorectal cancer cells
Assay: Cancer cell survival (CellTiter-Glo), HCT 116
Type: cell-based
Settings: HCT 116 cells; 10 μM; 72 h; Table 6.2
# Cell survival at given concentration per record follows

Compound	Cell survival at given concentration
CC(=O)O [acetate]	1.03
CC(O)CCO (stereo not shown)	0.98
CCCCC(=O)O [valerate]	1.04
CC(O)CC(=O)O (stereo not drawn) [beta-hydroxybutyrate]	0.99

###

Property: Cell survival at given concentration; scope: individual compounds
System: T24 bladder cancer cells
Assay: Cancer cell survival (CellTiter-Glo), T24
Assay type: cell-based
Conditions: 100 μM, 72 h, Table 3.2

Compound	Cell survival at given concentration
CCCCC(=O)O [valerate]	0.98
CC(O)CC(=O)O (stereo not drawn) [beta-hydroxybutyrate]	0.96
CC(=O)O [acetate]	1.00
CC(O)CCO (stereo not shown)	1.01

###

Test system: MCF7 breast cancer cells
Test: Cancer cell survival (CellTiter-Glo), MCF7
Type: cell-based
Conditions: 3 mM, 72 h
Cell survival at given concentration overview

Compound	Cell survival at given concentration
CC(=O)O [acetate]	0.99
CC(O)CCO (stereo not shown)	0.98
CC(O)CC(=O)O (stereo not drawn) [beta-hydroxybutyrate]	0.92
CCCCC(=O)O [valerate]	0.76

###

Tested on: HCT 116 colorectal cancer cells
Assay: Cancer cell survival (CellTiter-Glo), HCT 116
Type: cell-based
Conditions: HCT 116 cells; 317 μM; 72 h
Measured Quantity: Cell survival at given concentration

Compound	Experimental Target	Test Value
CC(=O)O [acetate]	HCT 116 colorectal cancer cells	1.02
CCCCC(=O)O [valerate]	HCT 116 colorectal cancer cells	0.99
CC(O)CC(=O)O (stereo not drawn) [beta-hydroxybutyrate]	HCT 116 colorectal cancer cells	1.03
CC(O)CCO (stereo not shown)	HCT 116 colorectal cancer cells	1.02

###

Test system: HCT 116 colorectal cancer cells
Experiment: Cancer cell survival (CellTiter-Glo), HCT 116
Type: cell-based
Details: Homo sapiens; HCT 116 cells; 10 μM; 72 h; read-out: Cell survival at given concentration
Reported viability at 10 µM values follow for various molecules

Molecule	Reading Unit	viability at 10 µM
Oc1ccc(C=Cc2cc(O)cc(O)c2)cc1	%	98
O=c1c(O)c(-c2cc(O)c(O)c(O)c2)oc2cc(O)cc(O)c12	%	102
O=c1cc(-c2ccc(O)cc2)oc2cc(O)cc(O)c12	%	98
O=C[C@H](O)[C@@H](O)[C@@H](O)CO	%	103
O=c1cc(-c2ccc(O)c(O)c2)oc2cc(O)cc(O)c12	%	93
Oc1cc(O)c2c(c1)O[C@H](c1cc(O)c(O)c(O)c1)[C@H](O)C2 [EGC, epigallocatechin]	%	99

###

Test: Human Regulatory T Cell Differentiation Assay
Assay type: cell-based
Conditions: human, primary naïve CD4+ T cells isolated from PBMCs, 0.5 mM, read-out: Cell viability % DMSO
We begin with a simple list: items and their reported viability at 6 days, 0.5 mM.

Compound	viability at 6 days, 0.5 mM
C[C@@H](O)CCO [(R)-1,3-Butanediol]	90 to 110%
O=C[C@H](O)[C@@H](O)[C@@H](O)CO [L-arabinose]	90 to 110%

###

Test system: PC-3 prostate cancer cells
Assay: Cancer cell survival (CellTiter-Glo), PC-3
Assay type: cell-based
Conditions: PC-3 cells; 72 h; Table 8.1
pIC50: −log10 of the molar value.
Quick list: pIC50 per entry.
Measured Quantity: pIC50

Compound	Test Value
O=c1oc2cc(O)ccc2c2cc(O)c(O)cc12 [urolithin C]	4.28
O=C(O[C@@H]1Cc2c(O)cc(O)cc2O[C@@H]1c1cc(O)c(O)c(O)c1)c1cc(O)c(O)c(O)c1 [EGCG, epigallocatechin gallate]	3.61

###

System: HCT 116 colorectal cancer cells
Test: Cancer cell survival (CellTiter-Glo), HCT 116
Assay type: cell-based
Details: Homo sapiens; HCT 116 cells; 1 μM; 72 h; read-out: Cell survival at given concentration
viability at 1 µM: recorded values

Compound	viability at 1 µM
O=c1cc(-c2ccc(O)cc2)oc2cc(O)cc(O)c12 [apigenin]	100%
O=c1cc(-c2ccc(O)c(O)c2)oc2cc(O)cc(O)c12 [luteolin]	101%
O=C[C@H](O)[C@@H](O)[C@@H](O)CO [L-arabinose]	101%
Oc1cc(O)c2c(c1)O[C@H](c1cc(O)c(O)c(O)c1)[C@H](O)C2 [EGC, epigallocatechin]	100%
O=c1c(O)c(-c2cc(O)c(O)c(O)c2)oc2cc(O)cc(O)c12 [myricetin]	107%
Oc1ccc(C=Cc2cc(O)cc(O)c2)cc1 [resveratrol]	98%

###

Tested on: MCF7 breast cancer cells
Assay: Cancer cell survival (CellTiter-Glo), MCF7
Format: cell-based
Conditions: Homo sapiens, 72 h, Table 5.1
The following compounds are listed with their measured IC50 values.
Measured Quantity: IC50 (µM)

Compound	Measured Quantity	Censoring Sign	Test Value
O=c1cc(-c2ccc(O)c(O)c2)oc2cc(O)cc(O)c12	IC50	=	36
Oc1ccc(C=Cc2cc(O)cc(O)c2)cc1	IC50	=	212
O=c1c(O)c(-c2cc(O)c(O)c(O)c2)oc2cc(O)cc(O)c12	IC50	>	1000
Oc1cc(O)c2c(c1)O[C@H](c1cc(O)c(O)c(O)c1)[C@H](O)C2 [EGC, epigallocatechin]	IC50	=	355

The values you see were collected from patent US20210085640A1.
